Assay: NCI Yeast Anticancer Drug Screen. Data for the mlh1 rad18 strain (AID 175)
Settings: S. cerevisiae mlh1 rad18 strain growth inhibition; at 50.0 µM
About 79,000 compounds went through this panel and 15% of them were active in at least one assay; those are over-represented in the sample as a whole. The source made the active and inactive calls. No stated cut-off is given here; in the data, active means growth inhibition above about 70%; inactive means the rest. Where a SMILES comes first, the peptide text is derived from it. The star is where a group is joined. Trt = c1ccc(C(c2ccccc2)(c2ccccc2)*)cc1; OtBu = CC(C)(C)O*
Use one of these outcomes when replying: active, inactive

molecule	group_label
CC(C)(C)OC(=O)CNC(=O)C(Cc1ccccc1)NC(=O)C(N)CSC(c1ccccc1)(c1ccccc1)c1ccccc1 (stereo not drawn) (H-Cys(Trt)-Phe-Gly-OtBu; configuration not given here)	active

-- ask Field: outcome | Entry: COc1ccc2c(Cc3cccc([N+](=O)[O-])c3)cncc2c1O
-- reply inactive

-- ask Now this one: O=S(=O)(Nc1ccccn1)c1ccc(N=Cc2c3ccccc3nc3cc(Cl)ccc23)cc1
-- reply active

-- ask What do we get for O=C1OC2(CCCCC2)OC(=O)C1=Cc1ccc([N+](=O)[O-])s1 ?
-- reply inactive

-- ask Same question for COc1ccc(-c2c(CO)cc(OC)c(OC)c2OC)c(CO)c1 please.
-- reply active

-- ask Would you kindly repeat that for CC1=C/C(=C\c2ccc([N+](=O)[O-])o2)C(=O)O1 ?
-- reply active

-- ask Likewise for O=c1c2ccccc2sc2c1c(N(CCO)CCO)cc1ccccc12 ?
-- reply active
